Target: T1, glucose-dependent insulinotropic peptide (gastric inhibitory polypeptide) receptor (GIPR), primary cAMP assay (human, UniProt P48546 22-466)
T1 sequence (looked up): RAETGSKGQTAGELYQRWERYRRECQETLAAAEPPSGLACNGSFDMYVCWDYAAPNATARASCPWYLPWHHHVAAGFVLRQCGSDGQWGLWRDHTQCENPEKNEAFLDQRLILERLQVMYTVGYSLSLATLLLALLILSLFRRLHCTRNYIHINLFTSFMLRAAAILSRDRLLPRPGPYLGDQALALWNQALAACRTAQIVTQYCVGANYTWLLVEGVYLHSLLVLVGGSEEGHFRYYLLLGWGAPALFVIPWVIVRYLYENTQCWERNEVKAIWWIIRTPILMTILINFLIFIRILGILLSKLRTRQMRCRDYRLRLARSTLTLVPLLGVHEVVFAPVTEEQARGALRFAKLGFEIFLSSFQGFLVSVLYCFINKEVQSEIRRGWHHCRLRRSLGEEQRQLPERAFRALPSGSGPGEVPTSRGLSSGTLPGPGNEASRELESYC
Experiment: cell-based or functional assay
Starred links: 1 amine or outer side, 2 acyl side, 3 side chain; linkers in the order of their positions; H or OH if unused. Non-standard residues stand in square brackets, D forms with d. Groups on a side chain read outwards from the residue. Primed or numbered codes have the meaning given here. No end group written: not given here. *: point of attachment. γGlu = O=C(O)[C@H](CCC(=O)[*:2])N[*:1]; Palmitoyl = CCCCCCCCCCCCCCCC(=O)*; αMeF = C[C@](N)(Cc1ccccc1)C(=O)O; αMeK = C[C@](N)(CCCCN)C(=O)O; Lauroyl = CCCCCCCCCCCC(=O)*; αMeS = C[C@](N)(CO)C(=O)O; PEG2′ = not defined here; Aib = CC(C)(N)C(=O)O

BINDER	Primary assay EC50 (cAMP), n1 [nM]
H[Aib]EGTFTSDVSK([PEG2′-PEG2′-γGlu-Lauroyl])YLEGEAAEEFIK([PEG2′-PEG2′-γGlu-Lauroyl])WVVEGG-NH2 [SEQ ID NO: 236]	22.2
H[Aib]EGTFTSDVSK([PEG2′-PEG2′-γGlu-Palmitoyl])YLEGEAAEEFIK([PEG2′-PEG2′-γGlu-Palmitoyl])FVVEGG-NH2 [SEQ ID NO: 244]	21.6
H[Aib]EGS[αMeF]TSDK([PEG2′-PEG2′-γGlu-Palmitoyl])SSYLEGEAA[αMeK]EFIK([PEG2′-PEG2′-γGlu-Palmitoyl])WVVEGG-NH2 [SEQ ID NO: 259]	21.4
H[Aib]EGS[αMeF]TSDV[αMeS]SYK([PEG2′-PEG2′-γGlu-Lauroyl])EGEAA[αMeK]EFIAWK([PEG2′-PEG2′-γGlu-Lauroyl])VEGG-NH2 [SEQ ID NO: 270]	22.3
